The reported numbers originate from paper PMC11472058.

For each of the compounds below, state its Susceptibility to hDcp2 (@30 min).
Molecular target: Human Dcp2 (Homo sapiens, UniProt Q8IU60)
Construct: made in house; host or cells: E. coli
Experiment: RNA decapping assay with recombinant hDcp2
Type: biochemical
Details: fraction of decapped RNA after 30 min of incubation with hDcp2, 27-nt RNA capped with the analog, 37 °C; triplicates ± SD

// CO[C@@H]1[C@H](OP(=O)(O)OC[C@H]2O[C@@H](n3cnc4c(=O)[nH]c(N)nc43)[C@H](O)[C@@H]2O)[C@@H](CSP(=O)([O-])OP(=O)(O)OP(=O)(O)OC[C@H]2O[C@@H](n3c[n+](C)c4c(O)nc(N)nc43)[C@H](O)[C@@H]2O)O[C@H]1n1cnc2c(N)ncnc21 : Susceptibility to hDcp2 (@30 min) value = 0.64 ± 0.11

// COC1C(OP(=O)(O)OCC2OC(n3cnc4c(=O)[nH]c(N)nc43)C(O)C2O)C(COP(=O)(O)OP(=O)([S-])OP(=O)(O)OCC2OC(n3c[n+](C)c4c(O)nc(N)nc43)C(O)C2O)OC1n1cnc2c(N)ncnc21 (stereo not drawn) [Compound 3, m^7GppSpAmpG] : Susceptibility to hDcp2 (@30 min) value = 0.82 ± 0.09

// COC1C(OP(=O)(O)OCC2OC(n3cnc4c(=O)[nH]c(N)nc43)C(O)C2O)C(COP(=O)(O)OP(=O)([S-])OP(=O)(O)OCC2OC(n3c[n+](C)c4c(O)nc(N)nc43)C(O)C2O)OC1n1cnc2c(N)ncnc21 (stereo not drawn) [Compound 4, m^7GppSpAmpG] : Susceptibility to hDcp2 (@30 min) value = 0.32 ± 0.10

// C[n+]1cn([C@@H]2O[C@H](COP(=O)(O)O[P@@](=O)([S-])OP(=O)(O)OC[C@H]3O[C@@H](n4cnc5c(N)ncnc54)[C@H](O)[C@@H]3OP(=O)(O)OC[C@H]3O[C@@H](n4cnc5c(=O)[nH]c(N)nc54)[C@H](O)[C@@H]3O)[C@@H](O)[C@H]2O)c2nc(N)nc(O)c21 : Susceptibility to hDcp2 (@30 min) value = 0.81 ± 0.16

// C[n+]1cn([C@@H]2O[C@H](COP(=O)(O)OP(=O)(O)OP(=O)([O-])SC[C@H]3O[C@@H](n4cnc5c(N)ncnc54)[C@H](O)[C@@H]3OP(=O)(O)OC[C@H]3O[C@@H](n4cnc5c(=O)[nH]c(N)nc54)[C@H](O)[C@@H]3O)[C@@H](O)[C@H]2O)c2nc(N)nc(O)c21 : Susceptibility to hDcp2 (@30 min) value = 0.60 ± 0.15

// CO[C@@H]1[C@H](OP(=O)(O)OC[C@H]2O[C@@H](n3cnc4c(=O)[nH]c(N)nc43)[C@H](O)[C@@H]2O)[C@@H](COP(=O)([O-])OP(=O)(O)CP(=O)(O)OP(=O)(O)OC[C@H]2O[C@@H](n3c[n+](C)c4c(O)nc(N)nc43)[C@H](O)[C@@H]2O)O[C@H]1n1cnc2c(N)ncnc21 : Susceptibility to hDcp2 (@30 min) value = 0.27 ± 0.07
